Tested on: NCI-H522 lung
Assay: NCI tumour cell line growth inhibition, 48 h
endpoint.label: log10 TGI (log10 of the value in µM)
Short version: log10 scale, TGI, µM.

CN(C)CCCNc1cnc2cc3ccccc3cc2n1 = 1.74
CCNc1cc2c3c(c1)CCCN3CCC2 = 1.80
COc1ccc(/C(Cl)=C(\C=O)c2ccccc2)cc1OC = 1.49
Clc1ccc2nc(CC3CCCC3)[nH]c2c1 = 1.33
CC(O)c1cc2c(s1)C(=O)c1scc(C(C)O)c1C2=O (stereo not drawn) = 0.41
CCCCOC(=O)c1ccc(NC(=O)CCl)cc1 = 0.55
COc1cc2c(cc1OC(=O)c1cc3ccccc3[nH]1)N=C[C@@H]1CCCN1C2=O = 0.08
CCCOC(=O)N[C@H]1CCc2cc(OC)c(OC)c(OC)c2-c2ccc(SC)c(=O)cc21 = 0.86
CCCCN=C(NC#N)N(Cc1ccccc1)Cc1ccccc1 = 1.49
CCCCCCCC(=O)OCC1OC(n2cc(F)c(=O)[nH]c2=O)C(NC(=O)OCc2ccccc2)C(O)C1O (stereo not drawn) = 1.96

Dear colleague, could you send me log10 TGI for each of the items below? Thanks.
1. CN[C@@H]1C[C@H]2O[C@@](C)([C@@H]1OC)n1c3ccccc3c3c4c(c5c6ccccc6n2c5c31)C(=O)N[C@H]4O
2. Cc1cc(C)c2c(=N)c3ccccc3n(CCCCCCn3c4ccccc4c(=N)c4c(C)cc(C)nc43)c2n1
3. Oc1ccc2ccccc2c1C1NN=C(c2ccccc2)S1 (stereo not drawn)

Response:
1. -0.06
2. 0.36
3. 1.13

----------
System: SW-620 colon
Assay: NCI tumour cell line growth inhibition, 48 h
endpoint.label: TGI

Example entries begin here.
O=C(Nc1ccc2[nH]c(C(=O)N3CC(CCl)c4c3cc([N+](=O)[O-])c3ccccc43)cc2c1)c1cc2ccccc2o1 (stereo not given) = > 1100 µM
Cc1ccc(C(=O)C2=CN=C3C(=O)N(c4ccccc4)N(C)C3(C)C2=N)cc1 (stereo not given) = > 100 µM

Batch lookup, TGI per entry.
1. O=c1cc(-c2ccccc2)nc(/C=C(\O)c2ccncc2)n1-c1ccccc1
2. CNc1ncnc2c1nnn2C

Response:
1. > 100 µM
2. > 100 µM

For each of the items listed, what is its TGI?
1. CCOC(=O)c1nc2cc(C(F)(F)F)ccc2nc1Nc1ccc(F)cc1
2. O=C(O)c1ccc([S-])cc1.[Au+].c1ccc(CN2[CH-]N(Cc3ccccc3)C(c3ccccc3)=C2c2ccccc2)cc1
3. COc1ccc2c(c1)CC1(O)COc3cc(OC)ccc3C1O2 (stereo not given)
4. COc1cc(C=O)c(-c2cc3c(cc2C2(C)OCCS2)OCO3)c(OC)c1OC (stereo not given)
5. CCO/C=C1\N=C(C(Cl)c2ccccc2)OC1=O (stereo not given)
6. CCOC(=O)C1=NN(c2ccc(Cl)cc2)C2=CC(C)=NN(C)C(=S)N21

Response:
> 100 µM
1.93 µM
> 100 µM
39.6 µM
> 100 µM
> 100 µM

----------
Tested on: RPMI-8226 leukemia
Assay: NCI tumour cell line growth inhibition, 48 h
endpoint.label: GI50

O=C(NCCN1CCC(O)CC1)c1cc2c(o1)C(=O)c1ccccc1C2=O = 1.58 µM
COc1ccc2nc3cc([N+](=O)[O-])ccc3c(NCCCN(CCO)CCO)c2c1 = 2.28 µM
COc1ccc(-c2nn(-c3cccc(Cl)c3)cc2-c2c(C#N)c(=O)n3[nH]c(-c4ccc(C)cc4)nc3c2C#N)cc1 = 4.57 µM
O=C(Nc1ccc2[nH]c(C(=O)N3CC(CCl)c4c3cc([N+](=O)[O-])c3ccccc43)cc2c1)c1cc2ccccc2o1 (stereo not given) = > 1100 µM

Request: What measured GI50 is associated with `CC(C)(c1ccc(Oc2ccc(C#N)c(C#N)c2)cc1)c1ccc(Oc2ccc(C#N)c(C#N)c2)cc1` on RPMI-8226 leukemia?
Response: > 100 µM

The origin of these recorded values is PubChem BioAssay (NCI).
